Tested on: SA4 cell line
protocol text: High throughput drug sensitivity and resistance test (CellTiter-Glo, 72 hours)
Format: cell-based
condition context: drug combined with BAY2666605 (40 nM) minus drug alone, SA4
property name: SA4 cell line: DSS(combo (BAY2666605))-DSS(drug)
Form rule: numeric answer, no unit written next to it.

Solved entries:
CN1CCc2c(c3ccccc3n2Cc2ccc(C(=O)NO)cc2)C1 : 10.7
NC(=O)/C(=C/n1cnc(-c2cc(C(F)(F)F)cc(C(F)(F)F)c2)n1)c1cncnc1 [Eltanexor, eltanexor] : 3.1
CO[C@@H](C)Cn1c(=O)n(C)c2cnc3ccc(-c4cncc(C(C)(C)O)c4)cc3c21 : 9.3

Turning to the following compound.
Form field SA4 cell line: DSS(combo (BAY2666605))-DSS(drug), entry O=C(CCCCCCNC(=O)c1cnc(N(c2ccccc2)c2ccccc2)nc1)NO : 7.5

* * *

System: SA4 cell line
protocol text: High throughput drug sensitivity and resistance test (CellTiter-Glo, 72 hours)
Format: cell-based
condition context: drug combined with anagrelide hydrochloride (100 nM) minus drug alone, SA4
Parameter SA4 cell line: DSS(combo (anagrelide))-DSS(drug): see the listing below.
Form rule: numeric answer, no unit written next to it.

Solved entries:
CCN(CC)Cc1ccc2cc(COC(=O)Nc3ccc(C(=O)NO)cc3)ccc2c1 : 10
CO[C@H]1C[C@@H]2CC[C@@H](C)[C@@](O)(O2)C(=O)C(=O)N2CCCC[C@H]2C(=O)O[C@H]([C@H](C)C[C@@H]2CC[C@@H](OC(=O)C(C)(CO)CO)[C@H](OC)C2)CC(=O)[C@H](C)/C=C(\C)[C@@H](O)[C@@H](OC)C(=O)[C@H](C)C[C@H](C)/C=C/C=C/C=C/1C : 9.8

The value of SA4 cell line: DSS(combo (anagrelide))-DSS(drug) recorded for CO[C@H]1C[C@@H]2CC[C@@H](C)[C@@](O)(O2)C(=O)C(=O)N2CCCC[C@H]2C(=O)O[C@H]([C@H](C)C[C@@H]2CC[C@@H](OP(C)(C)=O)[C@H](OC)C2)CC(=O)[C@H](C)/C=C(\C)[C@@H](O)[C@@H](OC)C(=O)[C@H](C)C[C@H](C)/C=C/C=C/C=C/1C when tested on SA4 cell line reads 13.2

The value of SA4 cell line: DSS(combo (anagrelide))-DSS(drug) recorded for CC(C)[C@@H](CS(=O)(=O)C(C)C)N1C(=O)[C@@](C)(CC(=O)O)C[C@H](c2cccc(Cl)c2)[C@H]1c1ccc(Cl)cc1 when tested on SA4 cell line reads 6.2

The value of SA4 cell line: DSS(combo (anagrelide))-DSS(drug) recorded for CN(C)CC#Cc1ccc(OCCCc2sc(N3CCc4cccc(C(=O)Nc5nc6ccccc6s5)c4C3)nc2C(=O)O)c(F)c1 when tested on SA4 cell line reads 22.2

Reference source: patent US20250041294A1
